meta.source: ChEMBL document CHEMBL2321739

Test: Inhibition of human His-tagged Frataxin/GST-tagged mono ubiquitin interaction expressed in human Calu6 cells after 3 days by GST pull down-based Western blot analysis
Assay type: cell-based
Conditions: calu-6
// returns f unless IC50 is strictly below 60 µM, in which case t

## Task Dear reviewer, please state whether Oc1cc2c(cc1C(c1ccc(F)cc1)N1CCOCC1)OCO2 (stereo not drawn) has IC50 strictly beneath 60 µM.
## Result f

Next:
## Task Dear reviewer, please state whether Oc1ccccc1C(c1cc2c(cc1O)OCO2)N1CCOCC1 (stereo not drawn) has IC50 strictly beneath 60 µM.
## Result f

## Task Dear reviewer, please state whether COc1cccc(C(c2cc3c(cc2O)OCO3)N2CCOCC2)c1O (stereo not drawn) has IC50 strictly beneath 60 µM.
## Result t
